meta.source: BindingDB's records for doi:10.1016/j.bmcl.2011.12.117

# protocol description: Antagonist activity at CCR5 in allo T cells assessed as inhibition of MIP-1beta-induced chemotaxis
observed property: pIC50
In textbook form, pIC50 equals minus log to base ten of the concentration in mol/L.

// lookup pIC50 for CCN(C(=O)Cc1ccc(S(C)(=O)=O)cc1)C1CCN(CC[C@@H](c2cc(F)cc(F)c2)C2CCN(S(C)(=O)=O)CC2)CC1
9.16
